System: UGT1A6
Experiment: Toxicity in rat assessed as fold increase in UGT1A6 transcriptional activity in liver at 75 mg/kg, po bid administered for 4 days relative to control
Assay type: organism-based
Conditions: time 4 day, read-out: FC
Documented fold induction at 96 h across a set of molecules
Form: value (number only, do not type unit).

Problem: For the molecule shown here, Cc1c(Nc2ncc3cc(Cl)c(C4CCN([C@@H]5COC[C@@H]5O)CC4)cc3n2)cnn1[C@@H]1CC1(F)F , give the reported fold induction at 96 h.
Solution: 2.5

// next item, fold induction at 96 h requested
Problem: For the molecule shown here, O[C@H]1COC[C@H]1N1CC[C@@H](c2cc3nc(Nc4cnn([C@@H]5CC5(F)F)c4Cl)ncc3cc2Cl)[C@H](F)C1 , give the reported fold induction at 96 h.
Solution: 2.5

* * *

System: GSTA5
Test: Toxicity in rat assessed as fold increase in GSTA5 transcriptional activity in liver at 75 mg/kg, po bid administered for 4 days relative to control
Assay type: organism-based
Conditions: time 4 day, read-out: FC
measure_name: fold induction at 96 h
Form: value (number only, do not type unit).

Problem: For the compound shown here, Cc1c(Nc2ncc3cc(Cl)c(C4CCN([C@@H]5COC[C@@H]5O)CC4)cc3n2)cnn1[C@@H]1CC1(F)F , give the reported fold induction at 96 h.
Solution: 5

// next item, fold induction at 96 h requested
Problem: For the compound shown here, O[C@H]1COC[C@H]1N1CC[C@@H](c2cc3nc(Nc4cnn([C@@H]5CC5(F)F)c4Cl)ncc3cc2Cl)[C@H](F)C1 , give the reported fold induction at 96 h.
Solution: 5

* * *

Documented Papp at 3 h, up to 1 µM across a set of molecules
Test system: mouse Bcrp
Test: Apparent permeability in mouse Bcrp-transfected dog MDCK-II cells at 0.1 to 1 uM measured after 3 hrs by LC/MS/MS analysis
Assay type: ADME, cell-based, Canis lupus familiaris
Conditions: dose 0.1-1 µM
Output spec: scalar in ×10⁻⁶ cm/s, unitless text.

Problem: For the molecule shown here, Cc1c(Nc2ncc3cc(Cl)c(C4CCN([C@@H]5COC[C@@H]5O)CC4)cc3n2)cnn1[C@@H]1CC1(F)F , give the reported Papp at 3 h, up to 1 µM.
Solution: 30

Continuing:
Problem: For the molecule shown here, O[C@H]1COC[C@H]1N1CC[C@@H](c2cc3nc(Nc4cnn([C@@H]5CC5(F)F)c4Cl)ncc3cc2Cl)[C@H](F)C1 , give the reported Papp at 3 h, up to 1 µM.
Solution: 28

* * *

Target: Leucine-rich repeat serine/threonine-protein kinase 2 (Homo sapiens, UniProt Q5S007, G2019S)
Sequence (Q5S007 whole entry G2019S, the tested form may be a part): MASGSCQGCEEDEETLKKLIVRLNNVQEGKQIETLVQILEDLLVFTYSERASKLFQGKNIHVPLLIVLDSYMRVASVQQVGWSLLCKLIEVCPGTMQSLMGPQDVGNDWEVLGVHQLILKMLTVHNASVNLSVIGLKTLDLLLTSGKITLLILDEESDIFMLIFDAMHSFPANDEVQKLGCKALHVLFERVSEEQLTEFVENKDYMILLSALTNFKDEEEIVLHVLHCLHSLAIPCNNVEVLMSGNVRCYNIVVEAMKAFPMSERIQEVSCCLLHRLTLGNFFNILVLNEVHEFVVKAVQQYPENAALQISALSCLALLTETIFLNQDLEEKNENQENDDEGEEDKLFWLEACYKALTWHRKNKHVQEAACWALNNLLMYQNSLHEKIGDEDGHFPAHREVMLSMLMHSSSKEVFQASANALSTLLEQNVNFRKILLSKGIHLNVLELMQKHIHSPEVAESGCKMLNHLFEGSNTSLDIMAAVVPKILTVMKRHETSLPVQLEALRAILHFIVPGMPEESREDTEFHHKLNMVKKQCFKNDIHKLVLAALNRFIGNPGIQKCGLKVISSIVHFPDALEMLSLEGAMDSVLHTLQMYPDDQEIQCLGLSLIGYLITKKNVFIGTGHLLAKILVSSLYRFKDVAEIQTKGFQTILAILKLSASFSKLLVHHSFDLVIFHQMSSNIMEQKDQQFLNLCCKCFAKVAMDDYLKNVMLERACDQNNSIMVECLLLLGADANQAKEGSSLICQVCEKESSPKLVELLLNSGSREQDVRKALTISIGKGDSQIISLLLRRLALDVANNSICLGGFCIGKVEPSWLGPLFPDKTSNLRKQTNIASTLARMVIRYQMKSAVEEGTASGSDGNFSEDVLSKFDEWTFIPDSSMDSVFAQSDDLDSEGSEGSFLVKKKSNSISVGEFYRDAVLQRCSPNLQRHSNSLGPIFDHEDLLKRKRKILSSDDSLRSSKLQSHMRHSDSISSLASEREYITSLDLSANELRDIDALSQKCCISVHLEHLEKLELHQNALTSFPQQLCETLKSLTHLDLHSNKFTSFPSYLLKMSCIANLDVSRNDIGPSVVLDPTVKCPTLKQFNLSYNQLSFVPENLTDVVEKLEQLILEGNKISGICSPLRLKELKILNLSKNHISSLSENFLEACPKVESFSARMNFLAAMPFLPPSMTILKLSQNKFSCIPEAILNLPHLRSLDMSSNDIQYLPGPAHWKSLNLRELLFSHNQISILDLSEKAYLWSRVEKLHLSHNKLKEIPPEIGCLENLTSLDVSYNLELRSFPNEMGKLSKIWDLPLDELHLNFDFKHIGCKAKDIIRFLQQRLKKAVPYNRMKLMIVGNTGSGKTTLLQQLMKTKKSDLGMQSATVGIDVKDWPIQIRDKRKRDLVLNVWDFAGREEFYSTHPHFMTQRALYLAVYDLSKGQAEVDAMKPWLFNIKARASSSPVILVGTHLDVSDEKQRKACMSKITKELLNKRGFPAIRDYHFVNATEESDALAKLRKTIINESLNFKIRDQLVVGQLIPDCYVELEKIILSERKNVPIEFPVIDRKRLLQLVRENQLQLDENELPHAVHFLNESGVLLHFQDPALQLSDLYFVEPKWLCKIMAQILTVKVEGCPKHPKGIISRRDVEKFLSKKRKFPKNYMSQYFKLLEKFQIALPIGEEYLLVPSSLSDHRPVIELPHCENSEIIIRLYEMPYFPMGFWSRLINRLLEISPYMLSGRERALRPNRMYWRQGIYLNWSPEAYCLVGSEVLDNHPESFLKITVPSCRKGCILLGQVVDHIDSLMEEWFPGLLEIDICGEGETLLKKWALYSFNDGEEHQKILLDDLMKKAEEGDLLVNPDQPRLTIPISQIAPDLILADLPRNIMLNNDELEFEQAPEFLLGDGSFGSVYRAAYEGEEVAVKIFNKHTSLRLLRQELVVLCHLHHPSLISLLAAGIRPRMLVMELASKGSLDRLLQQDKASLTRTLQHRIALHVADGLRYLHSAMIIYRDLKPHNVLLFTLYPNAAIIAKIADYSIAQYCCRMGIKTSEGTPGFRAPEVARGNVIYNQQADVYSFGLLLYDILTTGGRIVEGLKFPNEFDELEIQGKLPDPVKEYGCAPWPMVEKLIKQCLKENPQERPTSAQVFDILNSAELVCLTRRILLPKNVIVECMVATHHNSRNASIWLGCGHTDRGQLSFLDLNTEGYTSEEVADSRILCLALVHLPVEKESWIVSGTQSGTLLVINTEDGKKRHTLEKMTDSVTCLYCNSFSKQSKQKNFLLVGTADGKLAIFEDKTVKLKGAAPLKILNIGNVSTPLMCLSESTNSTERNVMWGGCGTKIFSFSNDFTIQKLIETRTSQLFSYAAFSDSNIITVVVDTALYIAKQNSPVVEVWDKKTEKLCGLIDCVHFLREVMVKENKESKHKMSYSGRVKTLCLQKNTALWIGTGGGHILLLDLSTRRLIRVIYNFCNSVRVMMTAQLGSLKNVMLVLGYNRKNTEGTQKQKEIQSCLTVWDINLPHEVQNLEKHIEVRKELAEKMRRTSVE
Experiment: Inhibition of recombinant N-terminal GST-fused LRRK2 […] mutant (970 to 2527 residues) (unknown origin) preincubated with enzyme for 15 mins followed by fluorescein-labeled LRRKtide peptide substrate and ATP addition for 90 mins by TR-FRET assay
measure_name: pIC50
pIC50 is a log-scale quantity: -log10 of the concentration expressed in molar.

Problem: For the compound shown here, Cc1c(Nc2ncc3cccc(C4CC4)c3n2)cnn1C1CCOCC1 , give the reported pIC50.
Solution: 9.00

Problem: For the compound shown here, CC(C)(O)Cn1ncc(Nc2ncc3cc(Cl)c(C4CCN(C5COC5)CC4)cc3n2)c1Cl , give the reported pIC50.
Solution: 9.10

Problem: For the compound shown here, Cc1c(Nc2ncc3cc(Cl)c(C4CCN(C5COC5)CC4)cc3n2)cnn1C1CC1 , give the reported pIC50.
Solution: 9.19

Problem: For the compound shown here, c1cc(C2CC2)c2nc(Nc3cnn(C4CCOCC4)c3)ncc2c1 , give the reported pIC50.
Solution: 7.82

Problem: For the compound shown here, Cc1c(Nc2ncc3ccc(C4CCN(C5COC5)CC4)cc3n2)cnn1C1CCOCC1 , give the reported pIC50.
Solution: 5.17

Continuing:
Problem: For the compound shown here, Cc1c(Nc2ncc3ccc(-c4ccn[nH]4)cc3n2)cnn1C1CCOCC1 , give the reported pIC50.
Solution: 8.77

Value source: ChEMBL document CHEMBL5042510
